Max cell cytotoxicity (%), ADCC on THP-1 cells: recorded values
Biological target: human LILRB4 (human, UniProt Q8NHJ6 22-448)
Test: cell-based or functional assay
Report the figure in % without appending any unit label.

Some solved cases for reference:
binder="ch27-D11-C2-A10 (antibody, V domains shown) VH: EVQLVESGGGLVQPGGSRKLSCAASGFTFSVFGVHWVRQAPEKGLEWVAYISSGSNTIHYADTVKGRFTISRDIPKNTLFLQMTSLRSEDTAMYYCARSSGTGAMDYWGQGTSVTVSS VL: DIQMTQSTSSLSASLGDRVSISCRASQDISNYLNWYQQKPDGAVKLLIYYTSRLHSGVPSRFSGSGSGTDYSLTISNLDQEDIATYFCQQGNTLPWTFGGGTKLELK" endpoint_unit=% reported=20.2
binder="ch2-H8-C9-F7-E2 (antibody, V domains shown) VH: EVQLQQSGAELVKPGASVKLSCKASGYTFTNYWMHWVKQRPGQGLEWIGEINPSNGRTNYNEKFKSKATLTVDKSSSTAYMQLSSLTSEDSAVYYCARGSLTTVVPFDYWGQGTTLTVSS VL: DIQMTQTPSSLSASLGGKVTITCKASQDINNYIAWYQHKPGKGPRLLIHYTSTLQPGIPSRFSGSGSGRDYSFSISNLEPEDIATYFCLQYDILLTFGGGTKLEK" endpoint_unit=% reported=31.1

Then this binder:
For reference, reported Max cell cytotoxicity (%), ADCC on THP-1 cells for ch43-D12-F3-G11 (antibody, V domains shown) VH: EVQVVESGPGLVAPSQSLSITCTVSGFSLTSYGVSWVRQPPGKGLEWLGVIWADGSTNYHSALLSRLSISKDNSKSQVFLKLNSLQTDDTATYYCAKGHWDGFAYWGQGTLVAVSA VL: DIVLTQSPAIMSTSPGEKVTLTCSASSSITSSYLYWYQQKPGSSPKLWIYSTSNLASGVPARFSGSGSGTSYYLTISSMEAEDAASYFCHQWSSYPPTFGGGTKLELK stands at 2.39

Where do the numbers come from? From patent US20250361295A1.
